Just for reference, ChEMBL document CHEMBL1938315 is where these values come from.

# TARGET: Transient receptor potential cation channel subfamily A member 1 (Rattus norvegicus, UniProt Q6RI86)
# Sequence (Q6RI86 whole entry): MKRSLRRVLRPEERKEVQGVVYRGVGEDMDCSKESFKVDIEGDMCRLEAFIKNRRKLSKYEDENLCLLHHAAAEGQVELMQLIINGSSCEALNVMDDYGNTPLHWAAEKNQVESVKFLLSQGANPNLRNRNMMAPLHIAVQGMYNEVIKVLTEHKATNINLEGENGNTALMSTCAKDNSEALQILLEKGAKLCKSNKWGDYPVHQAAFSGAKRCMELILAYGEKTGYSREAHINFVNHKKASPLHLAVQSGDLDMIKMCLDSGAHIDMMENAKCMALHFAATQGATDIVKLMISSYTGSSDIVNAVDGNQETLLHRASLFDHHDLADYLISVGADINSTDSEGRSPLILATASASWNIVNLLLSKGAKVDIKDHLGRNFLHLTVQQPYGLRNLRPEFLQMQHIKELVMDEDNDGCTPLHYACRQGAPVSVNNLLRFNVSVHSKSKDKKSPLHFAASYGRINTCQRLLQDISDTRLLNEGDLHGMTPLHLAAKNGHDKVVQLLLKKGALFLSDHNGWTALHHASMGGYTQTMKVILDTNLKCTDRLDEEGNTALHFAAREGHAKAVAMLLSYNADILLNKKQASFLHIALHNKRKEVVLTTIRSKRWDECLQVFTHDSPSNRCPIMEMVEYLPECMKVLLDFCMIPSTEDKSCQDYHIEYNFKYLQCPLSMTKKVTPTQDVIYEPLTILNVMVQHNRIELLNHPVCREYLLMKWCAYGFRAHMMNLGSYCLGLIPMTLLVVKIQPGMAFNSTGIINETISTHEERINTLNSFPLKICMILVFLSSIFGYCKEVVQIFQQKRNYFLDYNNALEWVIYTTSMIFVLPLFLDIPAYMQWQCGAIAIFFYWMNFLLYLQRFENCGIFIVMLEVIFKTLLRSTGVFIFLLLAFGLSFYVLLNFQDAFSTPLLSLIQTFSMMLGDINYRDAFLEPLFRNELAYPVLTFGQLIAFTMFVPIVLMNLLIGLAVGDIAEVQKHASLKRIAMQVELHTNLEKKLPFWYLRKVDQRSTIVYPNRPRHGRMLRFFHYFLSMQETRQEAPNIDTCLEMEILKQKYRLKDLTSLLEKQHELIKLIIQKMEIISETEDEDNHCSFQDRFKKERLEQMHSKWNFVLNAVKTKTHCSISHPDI
# ASSAY_NOTES: Antagonist activity at rat TRPA1 expressed in HEK293 cells assessed as inhibition of BITC-induced increase in intracellular calcium concentration by Fluo4-AM based fluorometric assay
pIC50: −log10 of the molar value.
PARAMETER_MEASURED: pIC50

Worked examples, 3 molecules total:
- MOLECULE: "COc1cccc(C2NC(=S)N(C)C3=C2C(=O)c2ccccc23)c1 (racemic)"
  PARAMETER_MEASURED: "pIC50"
  REPORTED_VALUE: 8.52
- MOLECULE: "O=C1C2=C(NC(=S)NC2c2cccc(OCCCCO)c2)c2ccccc21 (stereo not drawn)"
  PARAMETER_MEASURED: "pIC50"
  REPORTED_VALUE: 8.00
- MOLECULE: "COc1cccc(C2C3=C(NC(=S)N2C)c2ccccc2C3=O)c1 (racemic)"
  PARAMETER_MEASURED: "pIC50"
  REPORTED_VALUE: 6.01

(P) O=C1C2=C(NC(=S)NC2c2ccccc2)c2ccccc21 (racemic)
(Q) CC(C)c1ccc(NC(=O)Cn2cnc3c2c(=O)n(C)c(=O)n3C)cc1
Query: Which of the two gives a bigger number for pIC50: P or Q ? // return label of chosen record
Response: P

(A) CCCCOc1cccc(C2NC(=S)NC3=C2C(=O)c2ccccc23)c1 (stereo not drawn)
(B) COc1ccccc1C1NC(=S)NC2=C1C(=O)c1ccccc12 (stereo not drawn)
(C) COc1cccc(C2NC(=O)NC3=C2C(=O)c2ccccc23)c1 (racemic)
(D) COc1cccc([C@H]2NC(=S)NC3=C2C(=O)c2ccccc23)c1
Query: rank_up(items): orders items by reported pIC50 in ascending numerical order. Rank them, then answer with their labels in that order.
Response: B, C, A, D
(B: 5.03, C: 5.33, A: 7.15, D: 7.92)

(P) COCCCOc1cccc([C@H]2NC(=S)NC3=C2C(=O)c2ccccc23)c1
(Q) O=C1C2=C(NC(=S)NC2c2cccc(F)c2)c2ccccc21 (stereo not drawn)
Query: Select one: P or Q . Criterion: greater recorded pIC50. In your reply, give the label of the chosen option.
Response: P
(P: 8.40, Q: 6.41)

(I) COCCCOc1cccc(C2NC(=O)NC3=C2C(=O)c2ccccc23)c1 (racemic)
(II) COCCCOc1cccc(C2NC(=S)NC3=C2C(=O)c2ccccc23)c1 (racemic)
(III) COc1cc(OC)cc(C2NC(=S)NC3=C2C(=O)c2ccccc23)c1 (stereo not drawn)
(IV) O=C1C2=C(NC(=S)NC2c2cccc(O)c2)c2ccccc21 (stereo not drawn)
Query: Order these by pIC50, descending, and give the full ranking. Reply with the labels, ordered as the question asks.
Response: II, IV, I, III
